Every entry's value here was drawn from ChEMBL document CHEMBL5346964.

Protocol text: Oral bioavailability in Beagle dog at 5 mg/kg measured upto 24 hrs by LC/MS-MS analysis
Assay type: ADME, organism-based, Canis lupus familiaris
Condition summary: in vivo
Measured quantity: bioavailability (%)
Just the number please, in %, no unit attached.

Quick one: bioavailability of "Cc1ccc([C@@H]2C[C@H](CN[C@H](C)c3cccc4ccccc34)Oc3ccccc32)cc1C(=O)O.Cl" ? 79

====

Assayed system: CYP2E1 (Homo sapiens)
Sequence (P05181 whole entry): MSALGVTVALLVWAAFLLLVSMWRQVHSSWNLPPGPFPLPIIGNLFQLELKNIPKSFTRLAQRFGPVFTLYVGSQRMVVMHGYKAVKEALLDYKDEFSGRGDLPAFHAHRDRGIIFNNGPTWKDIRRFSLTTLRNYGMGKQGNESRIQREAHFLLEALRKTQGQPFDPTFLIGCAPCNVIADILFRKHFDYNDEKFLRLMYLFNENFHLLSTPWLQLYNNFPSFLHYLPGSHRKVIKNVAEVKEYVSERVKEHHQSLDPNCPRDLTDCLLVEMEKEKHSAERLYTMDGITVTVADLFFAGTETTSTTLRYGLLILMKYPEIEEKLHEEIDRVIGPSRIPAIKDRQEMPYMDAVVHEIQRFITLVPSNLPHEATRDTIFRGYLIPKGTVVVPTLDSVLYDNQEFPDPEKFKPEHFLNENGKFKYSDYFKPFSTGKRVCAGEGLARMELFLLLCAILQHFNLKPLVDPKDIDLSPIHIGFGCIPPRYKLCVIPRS
Protocol text: Inhibition of CYP2E1 in human liver microsomes at 10 uM preincubated for 5 mins followed by NADPH addition by LC-MS/MS analysis relative to control
Format: ADME, Microsome
Measured quantity: inhibition at 10 µM (%)
State the answer as a number, implicitly in %.

Report inhibition at 10 µM for "Cc1ccc([C@@H]2C[C@H](CN[C@H](C)c3cccc4ccccc34)Oc3ccccc32)cc1C(=O)O.Cl" please. 0
